Test system: kochia (Bassia scoparia)
Experiment: Test A1 postemergence, kochia
Format: in vivo
Conditions: Postemergence, 125 g ai/ha; 0 to 100 scale
Description: […]
Label rule met when Plant response rating, Kochia is strictly below 60; otherwise label rule not met.

COMPOUND | CLASS
CCOC(=O)N(c1cc(C2=NOC3CCCC23)c(CC)cc1C)S(=O)(=O)C(F)(F)F (stereo not drawn) | rule met
Cc1cc(C)c(N(COC(=O)N(C)C)S(=O)(=O)C(F)(F)F)cc1C1=NOC2CCCC12 (stereo not drawn) | rule met
Cc1c(C(=O)N2CCSCC2)cc(N(COC(=O)C(C)(C)C)S(=O)(=O)C(F)(F)F)c(C)c1C | rule not met
Cc1cc(C)c(N(COC(=O)C(C)(C)C)S(=O)(=O)C(F)(F)F)cc1C1=NOC2CCCCCC12 (single isomer, unassigned) | rule met
CCC1ON=C(c2cc(N(C(=O)OCC(C)C)S(=O)(=O)C(F)(F)F)c(C)cc2C)C1CC (stereo not drawn) | rule not met
Cc1ccc(C2=NOC3CCCC23)cc1NS(=O)(=O)C(F)(F)F (stereo not drawn) | rule met

// provenance: patent US20230278972A1
